target: F508del in NIH 3T3 cells (Homo sapiens, UniProt P13569, DEL508-508); construct: expressed in transfected cells; experiment: 3T3 assay: membrane potential optical assay for F508del correction; format: cell-based, mouse; conditions: F508del NIH 3T3 cells, compound incubation 18-24 hours at 37° C., forskolin activation; read-out: 3T3 EC50
Sequence (P13569 with tags, fused parts or gaps DEL508-508): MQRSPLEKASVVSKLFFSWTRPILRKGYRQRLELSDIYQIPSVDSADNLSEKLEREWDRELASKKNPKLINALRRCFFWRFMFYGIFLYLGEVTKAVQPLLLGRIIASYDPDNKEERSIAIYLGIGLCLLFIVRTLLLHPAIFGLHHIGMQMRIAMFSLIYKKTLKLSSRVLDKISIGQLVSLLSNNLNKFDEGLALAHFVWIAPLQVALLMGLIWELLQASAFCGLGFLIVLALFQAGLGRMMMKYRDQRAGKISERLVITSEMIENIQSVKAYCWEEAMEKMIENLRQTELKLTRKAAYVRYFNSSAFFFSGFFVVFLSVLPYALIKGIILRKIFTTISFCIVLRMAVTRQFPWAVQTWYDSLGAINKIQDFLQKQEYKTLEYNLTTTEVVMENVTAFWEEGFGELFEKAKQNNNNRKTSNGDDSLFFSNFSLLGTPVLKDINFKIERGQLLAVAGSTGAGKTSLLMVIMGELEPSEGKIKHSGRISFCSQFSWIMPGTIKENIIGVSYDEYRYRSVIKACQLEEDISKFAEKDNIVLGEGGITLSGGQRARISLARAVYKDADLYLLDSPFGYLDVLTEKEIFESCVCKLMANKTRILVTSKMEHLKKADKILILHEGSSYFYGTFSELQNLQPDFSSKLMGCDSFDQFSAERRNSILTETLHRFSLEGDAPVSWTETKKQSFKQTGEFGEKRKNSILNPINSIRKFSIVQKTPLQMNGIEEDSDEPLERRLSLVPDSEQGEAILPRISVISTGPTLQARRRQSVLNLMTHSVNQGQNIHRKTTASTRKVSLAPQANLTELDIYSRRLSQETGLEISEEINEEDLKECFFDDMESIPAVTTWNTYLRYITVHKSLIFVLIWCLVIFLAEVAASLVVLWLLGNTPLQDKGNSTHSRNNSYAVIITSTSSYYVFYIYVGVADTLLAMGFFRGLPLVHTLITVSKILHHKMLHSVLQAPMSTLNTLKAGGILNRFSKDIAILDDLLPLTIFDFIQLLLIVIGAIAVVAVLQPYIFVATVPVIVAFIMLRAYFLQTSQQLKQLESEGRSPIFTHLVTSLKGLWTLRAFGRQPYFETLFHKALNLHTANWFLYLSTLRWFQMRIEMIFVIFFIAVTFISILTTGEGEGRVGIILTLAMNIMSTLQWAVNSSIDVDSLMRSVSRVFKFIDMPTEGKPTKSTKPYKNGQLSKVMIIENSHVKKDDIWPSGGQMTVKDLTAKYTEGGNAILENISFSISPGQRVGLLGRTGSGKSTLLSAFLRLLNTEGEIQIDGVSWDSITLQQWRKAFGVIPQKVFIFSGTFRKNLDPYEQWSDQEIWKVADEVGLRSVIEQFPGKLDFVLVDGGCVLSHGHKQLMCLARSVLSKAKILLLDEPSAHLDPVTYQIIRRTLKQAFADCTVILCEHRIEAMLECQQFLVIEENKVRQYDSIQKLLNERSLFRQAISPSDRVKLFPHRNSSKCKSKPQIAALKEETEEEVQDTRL
pEC50: −log10 of the molar value.
Recorded pEC50 for the following compounds

Before answering, review these 6 worked examples.
INSERT INTO assay_data (compound, readout_label, measured_result) VALUES
  ('Cc1cccc(C)c1-c1cc2nc(n1)NS(=O)(=O)c1cccc(c1)NC(=O)[C@H]1C[C@H](CN(CCC(C)(C)C)C1)O2', 'pEC50', '> 6.00'),
  ('Cc1cccc(C)c1-c1cc2nc(n1)NS(=O)(=O)c1cccc(c1)NC(=O)CCCCO2', 'pEC50', '> 6.00'),
  ('Cc1cccc(C)c1-c1cc2nc(n1)NS(=O)(=O)c1cccc(c1)NC(=O)c1cccc(c1)O2', 'pEC50', '> 6.00'),
  ('Cc1cccc(C)c1-c1cc2nc(n1)NS(=O)(=O)c1cccc(c1)NC(=O)[C@H]1C[C@H](CN(C(=O)NC(C)(C)C)C1)O2', 'pEC50', '4.52 to 5.52'),
  ('CC1(C)CCCCC1c1cc2nc(n1)NS(=O)(=O)c1cccc(c1)NC(=O)c1cccc(c1)O2 (stereo not shown)', 'pEC50', '> 6.00'),
  ('Cc1cccc(C)c1-c1cc2nc(n1)NS(=O)(=O)c1cccc(c1)NC(=O)[C@@H]1C[C@@H](CN(CCCCC(C)(C)C)C1)O2', 'pEC50', '> 6.00');

Exercise: Check F508del in NIH 3T3 cells (Homo sapiens, UniProt P13569, DEL508-508) data and give pEC50 for Cc1ccccc1-c1cc2nc(n1)NS(=O)(=O)c1cccc(c1)N(C)C(=O)c1cccc(c1)O2 .
Key: 4.52 to 5.52

====

target: F508del in NIH 3T3 cells (Homo sapiens, UniProt P13569, DEL508-508); construct: expressed in transfected cells; assay: 3T3 assay: membrane potential optical assay for F508del correction; type: cell-based, mouse; details: F508del NIH 3T3 cells, compound incubation 18-24 hours at 37° C., forskolin activation; read-out: 3T3 EC50
Recorded EC50 for the following compounds

Before answering, review these 5 worked examples.
INSERT INTO results (compound, readout_label, measured_result) VALUES
  ('Cc1cccc(C)c1-c1cc2nc(n1)NS(=O)(=O)c1cccc(c1)NC(=O)[C@H]1CNC[C@H](C1)O2 [Compound 49]', 'EC50', '1000 to 3000 nM'),
  ('Cc1ccc2cc1Oc1cc(-c3c(C)cccc3C)nc(n1)NS(=O)(=O)c1cccc(c1)NC2=O [Compound 57]', 'EC50', '< 1000 nM'),
  ('Cc1cccc(C)c1-c1cc2nc(n1)NS(=O)(=O)c1cccc(c1)NC(=O)[C@H]1CCC[C@H](C1)O2 (single isomer, unassigned) [Compound 69]', 'EC50', '< 1000 nM'),
  ('Cc1cccc(C)c1-c1cc2nc(n1)NS(=O)(=O)c1cccc(c1)NC(=O)[C@@H]1C[C@@H](CN(CC3CC3)C1)O2 [Compound 30]', 'EC50', '< 1000 nM'),
  ('Cc1cccc(C)c1-c1cc2nc(n1)NS(=O)(=O)c1cccc(c1)NC(=O)[C@@H]1C[C@@H](CN(CC34CC(C3)C4)C1)O2 [Compound 25]', 'EC50', '< 1000 nM');

Next, consider the following compound.
Exercise: Provide EC50 value for the following compound: Cc1cccc(C)c1-c1cc2nc(n1)NS(=O)(=O)c1cccc(c1)NC(=O)[C@@H]1CNC[C@H](C1)O2 [Compound 48]
Key: 1000 to 3000 nM
